- assayed system: Bile acid receptor (Homo sapiens)
- assay: qHTS assay for small molecule antagonists of farnesoid X receptor signaling (AID 588526)
- reported conditions: HEK293T FXR-UAS-bla, beta-lactamase ratio, antagonist mode; series mostly up to 76.7 µM
Records with an inconclusive call do not appear. The source made the active and inactive calls. Calls follow the shape of the full dose curve.
quantity measured: outcome

compound | quantity measured | recorded result
CCCOC(=O)c1ccc(O)cc1 | outcome | inactive
COc1cc(CNC(=O)CCCC/C=C/C(C)C)ccc1O | outcome | inactive
O=C(Nc1ccccc1)c1cc([N+](=O)[O-])ccc1Cl | outcome | inactive
Nc1ccc(O)c(C(=O)O)c1 | outcome | inactive
S=c1[nH]c2ccccc2s1 | outcome | inactive

Next, consider the following compound.
### Prompt For the compound CC(C)NCC(O)COc1cccc2ccccc12 (stereo unspecified) , report outcome.
### Response inactive

====

- assay: Cell Viability - Hek293 (AID 427);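 also: cells exposed to compound for 40 hours at 37 °C before reading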
- reported conditions: qHTS
Results filed as inconclusive are left out. Active and inactive are the calls of the source.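 The calls were made as follows: active = compounds whose dose-response curve shows a full or clear partial loss of cell viability, called from curve shape rather than a numeric limit; inconclusive = weak partial curves or an effect only at the top dose; inactive = no dose-dependent loss of viability.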
Please answer using one outcome listed in T (active), F (inactive)

Some solved cases for reference:
compound | label
CCCCCCCCCCCCCCCCCC(=O)O | F
Nc1nc2ccc([N+](=O)[O-])cc2s1 | F
COc1cc(CNC(=O)CCCC/C=C/C(C)C)ccc1O | F
CC1(C)S[C@@H]2[C@H](NC(=O)[C@H](N)c3ccccc3)C(=O)N2[C@H]1C(=O)O | F
CCCOC(=O)c1ccc(O)cc1 | F
Oc1ccccc1O | T
Nc1ccc(O)c(C(=O)O)c1 | F
O=c1cc(-c2ccccc2)oc2ccccc12 | F
O=C(O)/C=C\C(=O)O | F
CN(C)CCC(c1ccc(Cl)cc1)c1ccccn1 (centres undefined) | F

### Prompt Which outcome was entered for the compound "NCCO" in this test?
### Response F

### Prompt Outcome logged for "CN(C)c1ccc(C(=C2C=CC(=[N+](C)C)C=C2)c2ccccc2)cc1" in this assay:
### Response T

### Prompt Recorded test call requested for "COc1cc(/C=C/C(=O)CC(=O)/C=C/c2ccc(O)c(OC)c2)ccc1O"
### Response T

====

- assayed system: Cytochrome P450 2C19 (Homo sapiens)
- assay: qHTS Assay for Inhibitors and Substrates of Cytochrome P450 2C19 (AID 899); also: nearly all actives have a fitted effect of over 60% in size
- reported conditions: recombinant CYP2C19, luciferin-H EGE luminescence; series mostly up to 57.1 µM
Inconclusive results are not listed. Calls of active or inactive are those of the source. Calls come from the whole dose curve; as a rule, active = well fitted inhibition curve with a large enough effect; inconclusive = small, poorly fitted or top-dose-only effect; inactive = no such curve, though single readings can be large or run the other way.
Choose one outcome from this list and give only that: active, inactive

Example cases with answers are listed next.
smiles code | label
Nc1ccc(O)c(C(=O)O)c1 | active
N[C@H](CCCP(=O)(O)O)C(=O)O | inactive
CN(C)C(N)=NCCC[C@H](N)C(=O)O | inactive
O=c1[nH]c2cc([N+](=O)[O-])c([N+](=O)[O-])cc2[nH]c1=O | inactive
COc1ccccc1N1CCN(CCCCNS(=O)(=O)c2cccc3c(N(C)C)cccc23)CC1 | active

### Prompt Outcome? "COC(=O)c1c(C)[nH]c(C)c1C(=O)c1ccccc1Cc1ccccc1"
### Response active

### Prompt Assay outcome for "CC(C)(C=O)Cc1cc(C(C)(C)C)c(O)c(C(C)(C)C)c1" : what was it?
### Response inactive

### Prompt Recorded test call requested for "Fc1ccc(C(OCCCc2cnc[nH]2)c2ccc(F)cc2)cc1"
### Response active

### Prompt Call for entry "CCCSc1ccc2nc(NC(=O)OC)[nH]c2c1" :
### Response inactive

### Prompt Recorded test outcome, item "c1cnc2c(c1)ccc1cccnc12"
### Response inactive
